Biological target: T1, PrimPolY89D1-354 (polymerase domain) (human, UniProt Q96LW4 1-354, Y89D)
T1 sequence: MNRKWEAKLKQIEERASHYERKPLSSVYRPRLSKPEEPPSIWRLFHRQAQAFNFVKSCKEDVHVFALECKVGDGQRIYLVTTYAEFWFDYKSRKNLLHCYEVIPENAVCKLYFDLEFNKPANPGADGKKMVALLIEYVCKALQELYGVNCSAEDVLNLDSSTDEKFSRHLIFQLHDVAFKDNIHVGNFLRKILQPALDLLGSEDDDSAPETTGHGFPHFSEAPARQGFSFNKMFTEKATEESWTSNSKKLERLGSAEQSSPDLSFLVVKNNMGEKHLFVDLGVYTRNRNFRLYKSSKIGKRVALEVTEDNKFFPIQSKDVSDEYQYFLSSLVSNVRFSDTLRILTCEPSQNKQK
Test: EMSA; 10 mM Mg2+; EMSA: 60 nM DNA, 10 mM Bis-Tris-Propane-HCl pH 7.0, 10 mM MgCl2, 1 mM DTT, 25 C, 60 min; 5% polyacrylamide gel in 0.5x TBE
Details: protein: recombinant; label: 5'-Hex on strand 1 (HP-20); 20 bp duplex, 5' overhang 30 nt on template strand (S12), other end blunt
Measurement Kind: Kd (nM)
Express it in nM; write the number only.

Given the entry Overhanging DNA substrate (HP-20 primer / ND-50 TemplateTT) (dsDNA) DNA 1: TGTCGTCTGTTCGGTCGTTC DNA 2: CGCGCAGGGCGCACAACAGCCTTGAAGACCGAACGACCGAACAGACGACA , report its measured Kd.
2550
